Reference for the values: patent US20220177587A1

- system_under_test: CD28 (Homo sapiens, UniProt P10747)
- measurement_protocol: Jurkat/IL2 + CHO/OKT3 +/- PD-L1 reporter assay: PD-L1-dependent CD28 costimulation
- Assay type: cell-based
- Design: host or cells: Jurkat cells expressing an IL-2-luciferase reporter
- measurement_context: Table E26; linker variants; 5.0 nM
measured_property: Fold Increase over WT CD80-IgV-Fe
Lab note: jot the number down without any unit.

Reported Fold Increase over WT CD80-IgV-Fe of E35D/D46V/M47L/V68M/L85Q/E88D delta (protein) VIHVTKEVKEVATLSCGHNVSVEELAQTRIYWQKDKKMVLTMMSGVLNIWPEYKNRTIFDITNNLSIMILALRPSDEGTYECVVQKYDKDAFKREHLAEVTLSVKTHTCPPCPAPEAEGAPSVFLFPPKPKDTLMISRTPEVTCVVVDVSHEDPEVKFNWYVDGVEVHNAKTKPREEQYNSTYRVVSVLTVLHQDWLNGKEYKCKVSNKALPAPIEKTISKAKGQPREPQVYTLPPSREEMTKNQVSLTCLVKGFYPSDIAVEWESNGQPENNYKTTPPVLDSDGSFFLYSKLTVDKSRWQQGNVFSCSVMHEALHNHYTQKSLSLSPG : 2.77

Reported Fold Increase over WT CD80-IgV-Fe of E35D/M47V/N48K/V68M/K89N delta (protein) VIHVTKEVKEVATLSCGHNVSVEELAQTRIYWQKDKKMVLTMMSGDVKIWPEYKNRTIFDITNNLSIMILALRPSDEGTYECVVLKYENDAFKREHLAEVTLSVKTHTCPPCPAPEAEGAPSVFLFPPKPKDTLMISRTPEVTCVVVDVSHEDPEVKFNWYVDGVEVHNAKTKPREEQYNSTYRVVSVLTVLHQDWLNGKEYKCKVSNKALPAPIEKTISKAKGQPREPQVYTLPPSREEMTKNQVSLTCLVKGFYPSDIAVEWESNGQPENNYKTTPPVLDSDGSFFLYSKLTVDKSRWQQGNVFSCSVMHEALHNHYTQKSLSLSPG : 2.63

Reported Fold Increase over WT CD80-IgV-Fe of E35D/M47V/N48K/V68M/K89N EAAAK (protein, UniProt P33681 35-288, looked up, variant E35D M47V N48K V68M K89N, EAAAK linker) T-lymphocyte activation …: VIHVTKEVKEVATLSCGHNVSVEELAQTRIYWQKDKKMVLTMMSGDVKIWPEYKNRTIFDITNNLSIMILALRPSDEGTYECVVLKYENDAFKREHLAEVTLSVKADFPTPSISDFEIPTSNIRRIICSTSGGFPEPHLSWLENGEELNAINTTVSQDPETELYAVSSKLDFNMTTNHSFMCLIKYGHLRVNQTFNWNTTKQEHFPDNLLPSWAITLISVNGIFVICCLTYCFAPRCRERRRNERLRRESVRPV : 4.38

Reported Fold Increase over WT CD80-IgV-Fe of E35D/D46V/M47L/V68M/L85Q/E88D (EAAAK)3 (protein, UniProt P33681 35-288, looked up, variant E35D D46V M47L V68M L85Q E88D, (EAAAK)3 linker) T-lymphocyte activation …: VIHVTKEVKEVATLSCGHNVSVEELAQTRIYWQKDKKMVLTMMSGVLNIWPEYKNRTIFDITNNLSIMILALRPSDEGTYECVVQKYDKDAFKREHLAEVTLSVKADFPTPSISDFEIPTSNIRRIICSTSGGFPEPHLSWLENGEELNAINTTVSQDPETELYAVSSKLDFNMTTNHSFMCLIKYGHLRVNQTFNWNTTKQEHFPDNLLPSWAITLISVNGIFVICCLTYCFAPRCRERRRNERLRRESVRPV : 5.25
